experiment: clinical; conditions: both, human, in vivo, 84 mg, Tmax median
Property name: Tmax (h)
Give bare numbers, in h.

The reported value for CCN(CC)CC#CCOC(=O)C(O)(c1ccccc1)C1CCCCC1 (stereo not shown) in terms of Tmax is 24
